Kindly supply the reported CC50 at 24 h values for the records listed here.
assay: XTT cell viability assay, non-cancerous cardiac fibroblasts (CF); format: cell-based, rat; details: rat, primary non-cancerous cardiac fibroblasts (CF), 24 hours incubation, XTT, non-cancerous cells; read-out: Cancer LC50 Rat primary cardiac fibroblast CF
Non-standard residues stand in square brackets, D forms with d. Residues, ends and D or L forms follow the SMILES beside them. 12Ado = NCCCCCCCCCCCC(=O)O

COMPOUND: NCCCC[C@H](NC(=O)CCCCCCCCCCCNC(=O)[C@H](CCCCN)NC(=O)[C@H](CCCCN)NC(=O)CCCCCCCCCCCNC(=O)[C@H](CCCCN)NC(=O)[C@H](CCCCN)NC(=O)CCCCCCCCCCCNC(=O)[C@H](CCCCN)NC(=O)[C@@H](N)CCCCN)C(N)=O [K(KNC12K)3NH2] (H-KK[12Ado]KK[12Ado]KK[12Ado]K-NH2)
MEASURED_ENDPOINT: CC50 at 24 h
VALUE_REPORTED: > 16 µM
//
COMPOUND: NCCCC[C@H](NC(=O)CCCCCCCCCCCNC(=O)[C@H](CCCCN)NC(=O)[C@H](CCCCN)NC(=O)CCCCCCCCCCCNC(=O)[C@H](CCCCN)NC(=O)[C@H](CCCCN)NC(=O)CCCCCCCCCCCNC(=O)[C@@H](N)CCCCN)C(N)=O [(KNC12K)3NH2] (H-K[12Ado]KK[12Ado]KK[12Ado]K-NH2)
MEASURED_ENDPOINT: CC50 at 24 h
VALUE_REPORTED: > 16 µM

Now consider the entry below.
Input: I am curious: what CC50 at 24 h value has been reported for NCCCC[C@H](NC(=O)CCCCCCCCCCCNC(=O)[C@H](CCCCN)NC(=O)[C@H](CCCCN)NC(=O)CCCCCCCCCCCNC(=O)[C@H](CCCCN)NC(=O)[C@@H](N)CCCCN)C(N)=O [K(KNC12K)2NH2] (HELM PEPTIDE1{K.K.[O=C(CCCCCCCCCCCN[*:1])[*:2]].K.K.[O=C(CCCCCCCCCCCN[*:1])[*:2]].K.[am]}$$$$V2.0) ?
Output: > 16 µM
